Overview of recorded TGI for various molecules
Test system: DMS 114 small cell lung
test: NCI tumour cell line growth inhibition, 48 h

>  <molecule>
N#CCc1ccc(C(C#N)/C(CCCC(=O)Nc2cccc([N+](=O)[O-])c2)=N\NC(=O)NN)cc1 (stereo unspecified)

>  <measureName>
TGI

>  <measurement>
> 100 µM

$$$$

Output TGI of COC1/C=C\C=C(/C)C(=O)Nc2cc3nc4ccc(Br)cc4oc-3c(c2=O)CC(C)CC(OC)C(O)C(C)/C=C(\C)C1OC(N)=O (stereo unspecified)
5.34 µM

Output TGI of COc1ccc(C2S/C(=C\c3cc(OC)c(OC)c(OC)c3)C(=O)N2NC(=O)Cc2ccccc2)cc1 (stereo unspecified)
> 100 µM

Output TGI of O=C(CNC(=O)OCc1ccccc1)Oc1ccccc1
> 100 µM

Output TGI of S=c1nc(Oc2ccc(Cl)c(Cl)c2)[nH]c(=S)[nH]1
48.2 µM

Output TGI of CC1(CO)OC1COCc1ccccc1 (stereo unspecified)
> 100 µM

Output TGI of O=C(Nc1ccc(Cl)cc1)c1cccc([N+](=O)[O-])c1O
14.8 µM

Output TGI of CC(=O)OCSc1ncnc2c1ncn2CN1CCOCC1
> 100 µM

Output TGI of CC1Cc2c(N)nc(NN)nc2NC1=O (stereo unspecified)
> 100 µM

Output TGI of C1CNCCNCCNCCN1
> 100 µM

Output TGI of O=C1CCCCCCCCCCC(=O)C2CCOCCOCCOCCC1Cc1cccc(n1)C2
> 100 µM

----------
Test system: LOX IMVI melanoma
test: NCI tumour cell line growth inhibition, 48 h; in the data active = GI50 below about 0.43 µM; inactive = the rest
Just give me one of these, please: active, inactive

Example entries begin here.
>  <compound>
CCN1C(=O)N(CC)C2C1NN=c1s/c(=C3\C(=O)N(CC(C)C)c4ccccc43)c(=O)n12 (stereo not given)

>  <targetSystem>
LOX IMVI melanoma

>  <classLabel>
inactive

$$$$
>  <compound>
CC(=O)Nc1nc(SCc2ccccc2)c2ncn(C(C)=O)c2n1

>  <targetSystem>
LOX IMVI melanoma

>  <classLabel>
inactive

$$$$
>  <compound>
COC1/C=C\C=C(/C)C(=O)Nc2cc3nc4ccc(Br)cc4oc-3c(c2=O)CC(C)CC(OC)C(O)C(C)/C=C(\C)C1OC(N)=O (stereo not given)

>  <targetSystem>
LOX IMVI melanoma

>  <classLabel>
active

$$$$
>  <compound>
N#CC1=C(N)OC2=C(COc3ccc(F)cc32)C1c1ccc(Cl)cc1 (stereo not given)

>  <targetSystem>
LOX IMVI melanoma

>  <classLabel>
inactive

$$$$

From here, focus on the item given below.
Which outcome did this test record for the compound O=C1CCCCCCCC/C=C/CCC(c2ccco2)O1 (stereo not given) ?
inactive

----------
Overview of recorded TGI for various compounds
Test system: SK-MEL-28 melanoma
test: NCI tumour cell line growth inhibition, 48 h

Observe how each entry below is paired with its result.
>  <compound>
O=C1C=C(N2CCCC2)C(=O)c2c(O)ccc(O)c21

>  <targetSystem>
SK-MEL-28 melanoma

>  <TGI>
> 10 µM

$$$$
>  <compound>
CC(=O)OCSc1ncnc2c1ncn2CN1CCOCC1

>  <targetSystem>
SK-MEL-28 melanoma

>  <TGI>
> 100 µM

$$$$
>  <compound>
CC(=O)NC1=C(Nc2ccc(C)cc2)C(=O)c2ccccc2C1=O

>  <targetSystem>
SK-MEL-28 melanoma

>  <TGI>
39.1 µM

$$$$
>  <compound>
O=C(Nc1ccc(Cl)cc1)c1cccc([N+](=O)[O-])c1O

>  <targetSystem>
SK-MEL-28 melanoma

>  <TGI>
39.6 µM

$$$$
>  <compound>
Cc1cccc(C)c1NC(=O)/C(Cl)=C(/Cl)C(=O)O

>  <targetSystem>
SK-MEL-28 melanoma

>  <TGI>
35.1 µM

$$$$
>  <compound>
NNC(=O)Cc1cccnc1

>  <targetSystem>
SK-MEL-28 melanoma

>  <TGI>
> 100 µM

$$$$
>  <compound>
C=C(C)[C@@H]1CC[C@]2(CO)CC[C@]3(C)[C@H](CC[C@@H]4[C@@]5(C)CC[C@H](O)C(C)(C)[C@@H]5CC[C@]43C)[C@@H]12

>  <targetSystem>
SK-MEL-28 melanoma

>  <TGI>
> 100 µM

$$$$
>  <compound>
CC1(CCc2ccccc2)CC1(Br)Br (configuration not stated)

>  <targetSystem>
SK-MEL-28 melanoma

>  <TGI>
> 100 µM

$$$$

Output TGI of [N-]=[N+]=NC1=NNC2(C(=O)N1)c1ccccc1-c1ccccc12
> 100 µM

Output TGI of Cc1ccc(C(=O)Cc2nc3ncccc3[nH]c2=O)cc1
87.4 µM

----------
System: DU-145 prostate
test: NCI tumour cell line growth inhibition, 48 h
measureName: TGI

Observe how each entry below is paired with its result.
>  <compound>
COc1ccc(C[C@H]2NC(=O)/C=C/C[C@@H]([C@H](C)[C@H]3O[C@@H]3c3ccccc3)OC(=O)[C@H](CC(C)C)OC(=O)[C@H](C)CNC2=O)cc1

>  <TGI>
> 8.97e-05 µM

$$$$
>  <compound>
CC1(C)NCCC[C@]2(C)[C@H]3C=CC4=C5C[C@](C)(CO)CC[C@]5(C)CC[C@@]4(C)[C@]3(C)CC[C@@H]12

>  <TGI>
5.02 µM

$$$$

Report measured TGI on DU-145 prostate; entry: NNC(=Nc1ccccc1)SCc1ccccc1
> 100 µM

----------
Tested on: UACC-257 melanoma
test: NCI tumour cell line growth inhibition, 48 h
measureName: TGI

Observe how each entry below is paired with its result.
>  <compound>
COc1ccc(C[C@H]2NC(=O)/C=C/C[C@@H]([C@H](C)[C@H]3O[C@@H]3c3ccccc3)OC(=O)[C@H](CC(C)C)OC(=O)[C@H](C)CNC2=O)cc1

>  <TGI>
> 0.0001 µM

$$$$
>  <compound>
O=C1c2cc([N+](=O)[O-])cnc2S(=O)(=O)N1c1ccc(Br)cc1

>  <TGI>
> 100 µM

$$$$
>  <compound>
CC(=O)NC1=C(Nc2ccc(C)cc2)C(=O)c2ccccc2C1=O

>  <TGI>
51.5 µM

$$$$
>  <compound>
CCN(CC)c1ccc(/C=c2\nc(-c3ccccc3)n3c2nc2ccccc23)cc1

>  <TGI>
99.3 µM

$$$$
>  <compound>
CC(C)=NNc1cnnc2ccc([N+](=O)[O-])cc12

>  <TGI>
> 100 µM

$$$$

Output TGI of NC(Cc1ccccc1)=NCC(=O)O
> 100 µM

----------
System: ACHN renal
test: NCI tumour cell line growth inhibition, 48 h
Overview of recorded GI50 for various compounds

Output GI50 of Fc1ccc(Oc2nccc(-c3c(-c4ccc(F)cc4)ncn3C3CCNCC3)n2)cc1
> 25 µM

Output GI50 of CC1(C)NCCC[C@]2(C)[C@H]3C=CC4=C5C[C@](C)(CO)CC[C@]5(C)CC[C@@]4(C)[C@]3(C)CC[C@@H]12
2.93 µM

Output GI50 of CCC1=C[C@@H]2CN(C1)Cc1c([nH]c3ccccc13)[C@@](C(=O)OC)(c1cc3c(cc1OC)N(C=O)[C@H]1[C@@](O)(C(=O)OC)[C@H](OC(C)=O)[C@]4(CC)[C@@H]5C[C@@H]5CN5CC[C@]31[C@@H]54)C2
0.0315 µM

Output GI50 of CCOC(=O)CCCn1c(SC)nc2cc(-c3ccco3)[nH]c2c1=O
31.7 µM

Output GI50 of N=C1c2nc3n(c2C(=O)c2nc4n(c21)CCCC4)CCCC3
20.5 µM

Output GI50 of c1ccc2[nH]c(SSc3nc4ncncc4[nH]3)nc2c1
4.14 µM

Output GI50 of C=C1C[C@@H]2C/C=C/C(=O)C/C(C)=C\C=C\C(=O)O[C@H](C=O)C/C(C)=C/[C@H](C1)O2
6.64 µM

Output GI50 of CCCc1ccc(S(=O)(=O)N[C@H]2CC[C@H]3[C@@H]4CCc5cc(O)ccc5[C@H]4CC[C@]23C)cc1
2.57 µM

Output GI50 of CC(=O)Nc1nc(SCc2ccccc2)c2ncn(C(C)=O)c2n1
61.6 µM

Output GI50 of CCN(CC)CCOc1ccc(Nc2ncc3cc(-c4ccc(O)cc4)c(=O)n(C)c3n2)cc1
0.0618 µM

----------
Test system: SF-295 CNS
test: NCI tumour cell line growth inhibition, 48 h
measureName: TGI (µM)
Entry rule: numbers only, all in µM.

>  <smilesRepresentation>
CC(=O)NC1=C(Nc2ccc(C)cc2)C(=O)c2ccccc2C1=O

>  <TGI / µM>
54.7

$$$$

# input for lookup
Output TGI of CC(=O)c1cc2c(s1)C(=O)c1scc(C(C)=O)c1C2=O
2.15

----------
Tested on: NCI-H460 lung
Just give me one of these, please: 1 for active, -1 for inactive

Example entries begin here.
>  <compound>
COc1ccc(C2=NN(C(=O)COc3ccc(Cl)cc3)C(O)(c3cc(F)c(Cl)cc3Cl)C2)cc1OC (stereo not given)

>  <classLabel>
-1

$$$$
>  <compound>
N#CC1=C(N)N=C(N2CCCCC2)C(C#N)C12Nc1ccccc1S2 (stereo not given)

>  <classLabel>
-1

$$$$
>  <compound>
CCC1=C[C@@H]2CN(C1)Cc1c([nH]c3ccccc13)[C@@](C(=O)OC)(c1cc3c(cc1OC)N(C=O)[C@H]1[C@@](O)(C(=O)OC)[C@H](OC(C)=O)[C@]4(CC)[C@@H]5C[C@@H]5CN5CC[C@]31[C@@H]54)C2

>  <classLabel>
1

$$$$
>  <compound>
CC([C@H]1CCC2C3CCC4C[C@@H](NC=O)CC[C@]4(C)C3CC[C@@]21C)N(C)C (stereo not given in full)

>  <classLabel>
-1

$$$$
>  <compound>
COc1ccc(CNc2nc3cc(N)cc(N)c3nc2-c2ccccc2)cc1OC

>  <classLabel>
-1

$$$$

Which outcome did this test record for the compound COC1/C=C\C=C(/C)C(=O)Nc2cc3nc4ccc(Br)cc4oc-3c(c2=O)CC(C)CC(OC)C(O)C(C)/C=C(\C)C1OC(N)=O (stereo not given) ?
1

Which outcome did this test record for the compound Cn1ccc2c(NCCN)c3c(c(NCCN)c21)C(=O)c1ccccc1C3=O ?
-1

Which outcome did this test record for the compound CN(NC(=O)CC(=O)NN(C)C(=S)c1ccccc1)C(=S)c1ccccc1 ?
1
